The reported numbers originate from ChEMBL document CHEMBL1641582.

assay: Immunosuppressive activity in human T cells assessed as inhibition of LFA1-mediated cell proliferation by mixed lymphocyte reaction assay; format: functional, cell-based
Here, each record is paired with measured pIC50 data.
Scale for pIC50: -log10 of concentration given in mol/L; no unit attached.

[
  {
    "structure.as.smiles": "COc1ccc(-c2cnc3nc(N)nc(NCc4ccccc4)c3n2)cc1OC",
    "pIC50": 4.89
  },
  {
    "structure.as.smiles": "COc1ccc(-c2cnc3nc(N)nc(N4CCSCC4)c3n2)cc1OC",
    "pIC50": 6.40
  },
  {
    "structure.as.smiles": "COc1ccc(-c2cnc3nc(N)nc(N4CCN(Cc5ccc(C(C)(C)C)cc5)CC4)c3n2)cc1OC",
    "pIC50": 5.37
  },
  {
    "structure.as.smiles": "CCOc1nc(N)nc2ncc(-c3ccc(C(F)(F)F)cc3)nc12",
    "pIC50": 5.00
  }
]

Req: For the compound `Cc1ccc(-c2cnc3nc(N)nc(OC(C)C)c3n2)cc1C` , give its reported pIC50.
Resp: 5.00

Req: Output pIC50 of `COc1ccc(-c2cnc3nc(N)nc(N4CCN(c5ccccc5)CC4)c3n2)cc1OC`
Resp: 6.40

Req: Give me measured pIC50, please, for this compound: `COc1ccc(-c2cnc3nc(N)nc(N4CCN(c5ccc(F)cc5)CC4)c3n2)cc1OC`
Resp: 7.00

Req: Please look at this compound and report its pIC50: `COc1ccc(-c2cnc3nc(N)nc(N4CCN(C(=O)COc5ccc(Cl)cc5)CC4)c3n2)cc1OC`
Resp: 9.30

Req: Please look at this compound and report its pIC50: `CC(C)Oc1nc(N)nc2ncc(-c3ccc(F)c(F)c3)nc12`
Resp: 5.00
